# Assay Explanation: Toxicity against monkey Vero cells
# Type: cell-based
# Experimental Parameters: Chlorocebus sabaeus (monkey)
Provide the recorded IC50 for the entries that follow.
Param answer (str): number followed by unit.

May I ask what IC50 has been recorded for CCCCN(CCCC)c1c(N)cc(S(=O)(=O)Nc2ccccc2)cc1N ?
27 µM

May I ask what IC50 has been recorded for CCCCN(CCCC)c1c(Cl)cc(S(=O)(=O)Nc2ccccc2)cc1Cl ?
19 µM

May I ask what IC50 has been recorded for CCCCN(CCCC)c1c(C#N)cc(S(=O)(=O)Nc2ccccc2)cc1C#N ?
16 µM

May I ask what IC50 has been recorded for CCCCN(CCCC)c1c([N+](=O)[O-])cc(S(=O)(=O)Nc2ccccc2)cc1[N+](=O)[O-] ?
9.7 µM

May I ask what IC50 has been recorded for COc1cc([C@@H]2c3cc4c(cc3[C@H](O)[C@H]3COC(=O)[C@H]23)OCO4)cc(OC)c1OC ?
0.016 µM

May I ask what IC50 has been recorded for CCCCN(CCCC)c1c(C(C)=O)cc(S(=O)(=O)Nc2ccccc2)cc1C(C)=O ?
26 µM

----------
Provide the recorded pIC50 for the entries that follow.
# System: Trypanosoma brucei brucei
# Assay Explanation: Growth inhibition against Trypanosoma brucei brucei
# Type: functional, organism-based
// field semantics: pIC50 = negative decimal log of concentration (mol/L)

Write down the reported pIC50 of CCCCN(CCCC)c1c(C#N)cc(S(=O)(=O)Nc2ccccc2)cc1C#N , test system: Trypanosoma brucei brucei.
6.59

Write down the reported pIC50 of CCCCN(CCCC)c1c(Cl)cc(S(=O)(=O)Nc2ccccc2)cc1Cl , test system: Trypanosoma brucei brucei.
5.80

Write down the reported pIC50 of CCCCN(CCCC)c1c([N+](=O)[O-])cc(S(=O)(=O)Nc2ccccc2)cc1[N+](=O)[O-] , test system: Trypanosoma brucei brucei.
6.74

Write down the reported pIC50 of Cc1ccc(C(=O)Nc2ccc(S(=O)(=O)O)c3cc(S(=O)(=O)O)cc(S(=O)(=O)O)c23)cc1NC(=O)c1cccc(NC(=O)Nc2cccc(C(=O)Nc3cc(C(=O)Nc4ccc(S(=O)(=O)O)c5cc(S(=O)(=O)O)cc(S(=O)(=O)O)c45)ccc3C)c2)c1 , test system: Trypanosoma brucei brucei.
7.11

Write down the reported pIC50 of CCCCN(CCCC)c1c(C(C)=O)cc(S(=O)(=O)Nc2ccccc2)cc1C(C)=O , test system: Trypanosoma brucei brucei.
5.80

Write down the reported pIC50 of CCCCN(CCCC)c1c(N)cc(S(=O)(=O)Nc2ccccc2)cc1N , test system: Trypanosoma brucei brucei.
5.40

----------
# Assay Explanation: Inhibition of Leishmania tarentolae tubulin assembly
Property: IC50

May I ask what IC50 has been recorded for CCCCN(CCCC)c1c(C(C)=O)cc(S(=O)(=O)Nc2ccccc2)cc1C(C)=O ?
> 100 µM

May I ask what IC50 has been recorded for CCCCN(CCCC)c1c(C(N)=O)cc(S(=O)(=O)Nc2ccccc2)cc1C(N)=O ?
> 100 µM

May I ask what IC50 has been recorded for CCCCN(CCCC)c1c(C(=O)OC)cc(S(=O)(=O)Nc2ccccc2)cc1C(=O)OC ?
> 100 µM

May I ask what IC50 has been recorded for CCCCN(CCCC)c1c([N+](=O)[O-])cc(S(=O)(=O)Nc2ccccc2)cc1[N+](=O)[O-] ?
7.4 µM

May I ask what IC50 has been recorded for CCCCN(CCCC)c1c(C(=O)O)cc(S(=O)(=O)Nc2ccccc2)cc1C(=O)O ?
> 100 µM

May I ask what IC50 has been recorded for CCCCN(CCCC)c1c(C#N)cc(S(=O)(=O)Nc2ccccc2)cc1C#N ?
6.6 µM

May I ask what IC50 has been recorded for CCCCN(CCCC)c1c(Cl)cc(S(=O)(=O)Nc2ccccc2)cc1Cl ?
9.1 µM

May I ask what IC50 has been recorded for CCCCN(CCCC)c1c(N)cc(S(=O)(=O)Nc2ccccc2)cc1N ?
> 100 µM

----------
Provide the recorded pIC50 for the entries that follow.
# Test system: Leishmania donovani
# Assay Explanation: Growth inhibition against Leishmania donovani
# Format: functional, organism-based
// field semantics: pIC50 = negative decimal log of concentration (mol/L)

Write down the reported pIC50 of CCCCN(CCCC)c1c(C#N)cc(S(=O)(=O)Nc2ccccc2)cc1C#N , test system: Leishmania donovani.
5.36

Write down the reported pIC50 of CCCCN(CCCC)c1c(N)cc(S(=O)(=O)Nc2ccccc2)cc1N , test system: Leishmania donovani.
4.92

----------
# Test system: Leishmania donovani
# Assay Explanation: Growth inhibition against Leishmania donovani
# Type: functional, organism-based
Property: pIC50
// field semantics: pIC50 = negative decimal log of concentration (mol/L)

May I ask what pIC50 has been recorded for N=C(N)c1ccc(OCCCCCOc2ccc(C(=N)N)cc2)cc1 ?
5.64

May I ask what pIC50 has been recorded for CCCCN(CCCC)c1c(C(C)=O)cc(S(=O)(=O)Nc2ccccc2)cc1C(C)=O ?
4.52

May I ask what pIC50 has been recorded for CCCCN(CCCC)c1c([N+](=O)[O-])cc(S(=O)(=O)Nc2ccccc2)cc1[N+](=O)[O-] ?
5.64

May I ask what pIC50 has been recorded for CCCCN(CCCC)c1c(Cl)cc(S(=O)(=O)Nc2ccccc2)cc1Cl ?
4.96

----------
# System: Trypanosoma brucei brucei
# Assay Explanation: Growth inhibition against Trypanosoma brucei brucei
# Type: functional, organism-based
pIC50: −log10 of the molar value.
Property: pIC50

May I ask what pIC50 has been recorded for CCCCN(CCCC)c1c(C(N)=O)cc(S(=O)(=O)Nc2ccccc2)cc1C(N)=O ?
< 4.30

May I ask what pIC50 has been recorded for CCCCN(CCCC)c1c(C(=O)OC)cc(S(=O)(=O)Nc2ccccc2)cc1C(=O)OC ?
< 4.30

May I ask what pIC50 has been recorded for CCCCN(CCCC)c1c(C(=O)O)cc(S(=O)(=O)Nc2ccccc2)cc1C(=O)O ?
< 4.30
